Values were extracted from patent US10940139B2.

Kindly state inhibition at 20 µM for each of the entries shown.
- target.system: KRas Q61H mutant (Homo sapiens (Human), UniProt P01116, Q61H)
- Sequence (P01116-2 other isoform, or with tags, fused parts or gaps Q61H): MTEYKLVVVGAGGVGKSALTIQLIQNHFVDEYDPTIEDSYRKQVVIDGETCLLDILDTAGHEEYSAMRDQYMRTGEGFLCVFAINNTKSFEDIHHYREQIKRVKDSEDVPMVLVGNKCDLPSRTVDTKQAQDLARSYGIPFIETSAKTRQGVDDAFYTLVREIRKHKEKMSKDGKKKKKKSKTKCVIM
- assay.name: Ras GTP binding domain inhibition assay (labeled GTP)
- assay.setup: 20 μM compound; KRas Q61H; read-out: % Inhibition at 20 μM of K-Ras mutant and wild-type protein, KRas Q61H

// query If you can, please state the reported inhibition at 20 µM value of Oc1nc(-c2ccccn2)nc2c(Br)c(-c3ccccc3)sc12 [drawing 3553] .
// result 1 to 25%

// query Then this compound: COc1cnc(CNC(=O)c2c(C)sc3c(O)nc(-c4ccccn4)nc23)[nH]c1=O [drawing 3523]
// result 0%

// query Then this compound: Cc1sc2nc(-c3ccccn3)nc(N)c2c1Br [drawing 3484]
// result 25 to 50%

// query Then this compound: Cc1sc2c(O)nc(-c3ccccn3)nc2c1-c1cccnc1 [drawing 3468]
// result 51 to 75%

// query Then this compound: O=C(NCCc1ccncn1)c1csc2nc(-c3ccccn3)nc(N3CCOCC3)c12 [drawing 3500]
// result 51 to 75%

// query Then this compound: Nc1nc(-c2ccccn2)nc(C(=O)NCCc2ccncc2)c1Oc1ccccc1 [drawing 3551]
// result 25 to 50%

// query Then this compound: N#Cc1cccc(-c2csc3c(O)nc(-c4ccccn4)nc23)c1 [drawing 3503]
// result 25 to 50%

// query Then this compound: COc1nc(-c2ccccn2)nc2c(C3CC3)csc12 [drawing 3489]
// result 0%

// query Then this compound: Cc1c(-c2csc3c(O)nc(-c4ccccn4)nc23)cnn1C [drawing 3505]
// result 76 to 100%
